- ASSAY_NOTES: Displacement of [125I]gastrin from guinea pig gastric glands
Response field label: string, one of Y (IC50 strictly below 400 nM) or N.

MOLECULE	CAT
Cc1nnc2n1-c1ccccc1C(c1ccccc1)=NC2NC(=O)Nc1ccc(Cl)cc1 (stereo not drawn)	Y
Cc1nnc2n1-c1ccccc1C(c1ccccc1F)=NC2NC(=O)c1cc2ccccc2[nH]1 (stereo not drawn)	Y
Fc1ccccc1C1=N[C@H](Cc2c[nH]c3ccccc23)c2nncn2-c2ccccc21	N

Is IC50 of Cc1nnc2n1-c1ccc(Cl)cc1C(c1ccccc1Cl)=NC2 strictly below 400 nM?
N

# check: IC50 < 400 nM for Fc1ccccc1C1=N[C@H](Cc2c[nH]c3ccccc23)c2nnc(C(Cl)(Cl)Cl)n2-c2ccccc21
N

I'd appreciate it if you could check whether CN(C)Cc1nnc2n1-c1ccccc1C(c1ccccc1F)=N[C@@H]2Cc1c[nH]c2ccccc12 has IC50 smaller than 400 nM.
N

Decide: IC50 of O=C(NC1N=C(c2ccccc2)c2ccccc2-n2cnnc21)OCc1ccccc1 (stereo not drawn) strictly below 400 nM?
N

---

- ASSAY_NOTES: Displacement of [125I]gastrin from guinea pig gastric glands
What IC50 was measured for each of the following?
Give bare numbers, in nM.

COMPOUND	IC50 (nM)
O=C(NC1N=C(c2ccccc2F)c2ccccc2-n2cnnc21)c1ccc(Cl)cc1 (stereo unspecified)	2400
O=C(Nc1ccc(Cl)cc1)NC1N=C(c2ccccc2)c2ccccc2-n2cnnc21 (stereo unspecified)	380
O=C(NC1N=C(c2ccccc2F)c2ccccc2-n2cnnc21)OCc1ccccc1 (stereo unspecified)	3000

Entry under review: O=C(NC1N=C(c2ccccc2F)c2ccccc2-n2cnnc21)c1cc2ccccc2[nH]1 (stereo unspecified) . Reported IC50?
65
